Each entry below carries its recorded solubility kinetic.
- ASSAY INFO: Aqueous solubility of DMSO dissolved compound in buffer solution at pH 6.8 by LC-MS/MS analysis
- Type: physicochemical

COc1cc(CN(C)C(=O)c2c(OCCCC3CCN(C(=O)OC(C)(C)C)CC3)c3ccccc3n(C)c2=O)cc(OC)c1 :: 1.8 µg/mL
COc1cc(CN(C)C(=O)c2c(OCCCC3CCN(C(=O)OC(C)(C)C)CC3)c3cnccc3n(C)c2=O)cc(OC)c1 :: 33 µg/mL
COc1cc(CN(C)C(=O)c2c(OCCCC3CCN(C(=O)OC4(C)CC4)CC3)c3cccnc3n(C)c2=O)cc(OC)c1 :: 16 µg/mL
CCOc1cc(CN(C)C(=O)c2c(OCCCC3CCN(C(=O)OC(C)(C)C)CC3)c3ccccc3n(C)c2=O)cc(OCC)c1 :: < 0.08 µg/mL

Entry COc1cc(CN(C)C(=O)c2c(OCCCC3CCN(C(=O)OC(C)(C)C)CC3)c3cccnc3n(C)c2=O)cc(OC)c1 : reported solubility kinetic = ?
7.3 µg/mL

Then CN(Cc1cc(C(F)(F)F)cc(C(F)(F)F)c1)C(=O)c1c(OCCCC2CCN(C(=O)OC3(C)CC3)CC2)c2cccnc2n(C)c1=O ?
< 0.3 µg/mL

Then COc1cc(CN(C)C(=O)c2c(OCCCC3CCN(C(=O)OC4(C)CC4)CC3)c3cccnc3n(C)c2=O)cc(C(F)(F)F)c1 ?
0.79 µg/mL

Then CN(Cc1cc(C(F)(F)F)cc(C(F)(F)F)c1)C(=O)c1c(OCCCC2CCN(C(=O)OC(C)(C)C)CC2)c2ccccc2n(C)c1=O ?
< 0.16 µg/mL
